Ref: PubChem BioAssay (NCI)

Tested on: LOX IMVI melanoma
Experiment: NCI-60 one-dose screen, 48 h (100 = growth as untreated, 0 = no growth, -100 = all killed)
Conditions: 10 µM
Procedure: Growth inhibition of the LOX IMVI human tumor cell line is measured as a screen for anti-cancer activity. Cells are grown in 96 well plates and exposed to the test compound for 48 hours. Compounds are tested at a single concentration, which is 10^-5 M for most compounds. The reported endpoint is percent growth (GI% or GIPRCNT), where numbers from 0 - 100% represent growth inhibition, and numbers from -100% - 0 represent cell death. For example, a value of 40 represents 60% growth inhibition. […]
Compounds without any hit were thinned out: in the full panel of roughly 83,000, 20% have a hit.
# growth per entry

{"compound": "O=C(O)c1ccc([N+](=O)[O-])cc1S(=O)(=O)O", "test_system": "LOX IMVI melanoma", "growth / %": 98.1}
{"compound": "CCOS(=O)(=O)c1ccc([N+](=O)[O-])cc1", "test_system": "LOX IMVI melanoma", "growth / %": 97.7}
{"compound": "O=CNCCc1ccccc1", "test_system": "LOX IMVI melanoma", "growth / %": 109}
{"compound": "COC1C(=O)CCC2(CO2)C1(O)C1(C)OC1CCC(C)C (configuration not stated)", "test_system": "LOX IMVI melanoma", "growth / %": 50.3}
{"compound": "c1ccc(Nc2ccccn2)nc1", "test_system": "LOX IMVI melanoma", "growth / %": 95.7}
{"compound": "COc1ccc2c(ccc[n+]2C)c1", "test_system": "LOX IMVI melanoma", "growth / %": 105}
{"compound": "CCOC(=O)/C(O)=C(\\C=N\\C(=S)Nc1ccc(Cl)c(Cl)c1)C(=O)OCC", "test_system": "LOX IMVI melanoma", "growth / %": 92.9}

---

System: CAKI-1 renal
Test: NCI-60 one-dose screen, 48 h
Settings: 10 µM unless noted
Compounds without any hit were thinned out: in the full panel of roughly 83,000, 20% have a hit. Activity calls are given as the source filed them. The calls were made as follows: active = growth percent below 10; inactive = the rest.
Labels: T = active, F = inactive

{"compound": "CCOc1ccc(C(=O)NCC(C)C)cc1", "class_label": "F"}
{"compound": "Cc1ccc(S(=O)(=O)CCCl)cc1", "class_label": "F"}
{"compound": "CCOC(=O)c1c(C)[nH]c(C)c1C=O", "class_label": "F"}
{"compound": "NC(CO)(CO)c1ccccc1", "class_label": "F"}
{"compound": "N#Cc1ccc(OC(=O)Nc2cc(Cl)cc(Cl)c2)cc1", "class_label": "T"}
{"compound": "CCOP(=O)(OCC)/C(=C\\N1C(=O)CC(=O)NC1=S)C(=O)OC", "class_label": "F"}
{"compound": "CCOC(=O)CO", "class_label": "F"}
{"compound": "CCNCC(C)(C)O", "class_label": "F"}
{"compound": "CN=S(=O)(OCCCCCOS(=O)(=NC)c1ccc(C)cc1)c1ccc(C)cc1 (centres undefined)", "class_label": "F"}
{"compound": "C=CC(C)C(C)(C)O (centres undefined)", "class_label": "F"}
{"compound": "C/C(O)=C(/C=N/C(=S)Nc1ccccc1)C(=O)Nc1ccccc1C", "class_label": "F"}
{"compound": "COc1ccc(C2CCCCC2=O)cc1 (centres undefined)", "class_label": "F"}
{"compound": "O=C(NC1CCCCC1)c1ccc(Cl)cc1", "class_label": "F"}
{"compound": "c1ccc(Nc2ccccn2)nc1", "class_label": "F"}
{"compound": "C=CC(=O)OC1CCC(C(C)(C)CC)CC1 (centres undefined)", "class_label": "F"}
{"compound": "CCOS(=O)(=O)c1ccc([N+](=O)[O-])cc1", "class_label": "F"}
{"compound": "N#Cc1ccc2nc[nH]c2c1", "class_label": "F"}
{"compound": "CC1CC(C)S(=O)(=O)C1 (centres undefined)", "class_label": "F"}
{"compound": "OC(CCN1CCCCC1)(c1ccccc1)c1ccccc1", "class_label": "F"}
{"compound": "O=S1(=O)c2ccccc2Oc2ccccc21", "class_label": "F"}
{"compound": "Cc1[nH]nc(C(N)=O)c1[N+](=O)[O-]", "class_label": "F"}
{"compound": "O=C(O)c1cc(I)ccc1O", "class_label": "F"}
{"compound": "COc1nc2ccccc2s1", "class_label": "F"}
{"compound": "CC(=O)N(C)N=Nc1ccc(C)cc1", "class_label": "F"}
{"compound": "S=CN1CCCCC1", "class_label": "F"}
{"compound": "Cc1c(Cl)cccc1NC(=S)NC(=O)c1ccccc1", "class_label": "F"}
{"compound": "O=C(NCc1ccco1)Nc1cccc2c(NC(=O)NCc3ccco3)cccc12", "class_label": "F"}
{"compound": "CCCCNC(=O)c1ccc(OCC)cc1", "class_label": "F"}
{"compound": "COC1CC(OC(=O)c2ccc([N+](=O)[O-])cc2)C(COC(=O)c2ccc([N+](=O)[O-])cc2)O1 (centres undefined)", "class_label": "F"}

---

// values below are reported growth
Test system: SK-MEL-2 melanoma
Assay: NCI-60 one-dose screen, 48 h (100 = growth as untreated, 0 = no growth, -100 = all killed)
Conditions: 10 µM unless noted
Compounds without any hit were thinned out: in the full panel of roughly 83,000, 20% have a hit. The source made the active and inactive calls. How the source made its calls: active means growth percent below 10; inactive means the rest.

{"compound": "CN(C)c1ccc2nc3ccc(=[N+](C)C)cc-3oc2c1", "test_system": "SK-MEL-2 melanoma", "growth": "58.1% (inactive)"}
{"compound": "COc1cc2c(c(OC)c1OC)-c1ccc(SC)c(=O)cc1[C@@H](NC1OC(CO)C(O)C(O)C1O)CC2 (stereo not given in full)", "test_system": "SK-MEL-2 melanoma", "growth": "4.69% (active)"}
{"compound": "CC(=O)NNC(=S)/N=C\\C(C(=O)c1ccccc1)=C(/O)c1ccccc1", "test_system": "SK-MEL-2 melanoma", "growth": "110% (inactive)"}
{"compound": "CC1=CC(=Nc2ccc(N(C)C)cc2)C=C(C)C1=O", "test_system": "SK-MEL-2 melanoma", "growth": "110% (inactive)"}
{"compound": "O=C(O)CCCCCNC(=O)OCc1ccccc1", "test_system": "SK-MEL-2 melanoma", "growth": "119% (inactive)"}
{"compound": "CCOC(=O)c1ccc(Nc2sc(C(=O)c3ccc(Br)cc3)c(N)c2C#N)cc1", "test_system": "SK-MEL-2 melanoma", "growth": "21.7% (inactive)"}
{"compound": "O=Cc1ccc(O)c(O)c1", "test_system": "SK-MEL-2 melanoma", "growth": "103% (inactive)"}
{"compound": "CCOC(=O)C(=O)CC(=O)c1ccccc1", "test_system": "SK-MEL-2 melanoma", "growth": "96.9% (inactive)"}
{"compound": "BrCc1cccc(C[P+](c2ccccc2)(c2ccccc2)c2ccccc2)c1", "test_system": "SK-MEL-2 melanoma", "growth": "70.4% (inactive)"}
{"compound": "CC(=O)O[C@H]1CC[C@]2(C)C3=C(C(=O)C[C@H]2C1(C)C)[C@]1(C)CC[C@H]([C@H](C)CCC(=O)O)[C@@]1(C)CC3=O", "test_system": "SK-MEL-2 melanoma", "growth": "95.3% (inactive)"}

---

Tested on: ACHN renal
Experiment: NCI-60 one-dose screen, 48 h (100 = growth as untreated, 0 = no growth, -100 = all killed)
Conditions: 10 µM unless noted
The panel holds about 83,000 compounds, 20% with a hit somewhere; the sample as a whole holds those more often. Active and inactive are the calls of the source. The calls were made as follows: active = growth percent below 10; inactive = the rest.
property_label: growth

{"compound": "CCOC(OCC)C(=O)c1ccccc1", "recorded_value": "99.3% (inactive)"}
{"compound": "CCCCNc1ccc(-c2ccc(NCCCC)cc2)cc1", "recorded_value": "71.1% (inactive)"}
{"compound": "COc1ccc(C)cc1NC(=O)SC(C)C", "recorded_value": "100% [100 µM] (inactive)"}
{"compound": "Nc1ccn(C2CC(N)C(CO)O2)c(=O)n1 (centres undefined)", "recorded_value": "20.1% (inactive)"}
{"compound": "O=C(O)c1c[nH]c2ccccc2c1=O", "recorded_value": "102% (inactive)"}
{"compound": "c1ccc(-c2ccc3ccccc3c2)cc1", "recorded_value": "88.9% (inactive)"}
{"compound": "CN(C(=S)S(=O)(=O)C12CC3CC(CC(C3)C1)C2)c1ccccc1", "recorded_value": "93.9% (inactive)"}
{"compound": "CC(=O)CSc1ncnc2nc[nH]c12", "recorded_value": "93% (inactive)"}
{"compound": "Nc1c(Br)cc(O)c2c1C(=O)c1ccccc1C2=O", "recorded_value": "97.1% (inactive)"}
{"compound": "O=Cc1ccc(Cl)c(Cl)c1", "recorded_value": "103% (inactive)"}
{"compound": "Nc1cc(N)ncn1", "recorded_value": "102% (inactive)"}
{"compound": "O=CNCCc1ccccc1", "recorded_value": "98.5% (inactive)"}
{"compound": "NC(=O)NCCO", "recorded_value": "107% (inactive)"}
{"compound": "Cc1ccc(C)c(CN(C)C)c1O", "recorded_value": "114% (inactive)"}
{"compound": "ClCC(Cl)[C@@H]1CC2C=CC1C2 (some centres undefined)", "recorded_value": "108% (inactive)"}
{"compound": "O=C(CCCl)OCCOc1ccccc1", "recorded_value": "106% (inactive)"}
{"compound": "C=CCOc1ccc(Cl)cc1Cl", "recorded_value": "102% (inactive)"}
{"compound": "CCN1CCCC(N2c3ccccc3Sc3ccccc32)C1 (centres undefined)", "recorded_value": "98.5% (inactive)"}
{"compound": "CCCCCCCCCCCCCCCCCC(=O)NCCNC(=O)CCCCCCCCCCCCCCCCC", "recorded_value": "86.2% (inactive)"}
{"compound": "Cn1/c(=N\\N=C\\c2ccccc2OCCO)sc2ccccc21", "recorded_value": "92.5% (inactive)"}
{"compound": "CCOc1ccncc1[N+](=O)[O-]", "recorded_value": "115% (inactive)"}
{"compound": "CC(=O)C1C(=O)C(=O)N(c2ccc(Cl)c(Cl)c2)C1=O (centres undefined)", "recorded_value": "97.8% (inactive)"}
{"compound": "CC(C)C(C)(C)C(=O)C(C)(C)C(C)(C)C", "recorded_value": "99.3% (inactive)"}
{"compound": "CC(=O)NC(CCc1ccc(Cl)c(Cl)c1)c1cccc(O)c(=O)c1 (centres undefined)", "recorded_value": "17.5% (inactive)"}
{"compound": "O=C(N/N=C\\c1ccc(Cl)cc1Cl)c1ccncc1", "recorded_value": "105% (inactive)"}
{"compound": "CCCCOC(=O)c1ccccc1O", "recorded_value": "104% (inactive)"}
{"compound": "CC(=O)c1cccc(N(C)S(=O)(=O)c2ccc(C)cc2)c1", "recorded_value": "107% (inactive)"}
{"compound": "Cc1ccc(S(N)(=O)=O)cc1Cl", "recorded_value": "107% (inactive)"}
{"compound": "CCOC(=O)C(COS(C)(=O)=O)(COS(C)(=O)=O)C(=O)OCC", "recorded_value": "103% (inactive)"}
